experiment: Rotorod test; conditions: mouse, in vivo, ip
READOUT_LABEL: TD50

For the compound C[C@]12CC[C@@H](O)C[C@@H]1CC[C@@H]1[C@@H]2CC[C@]2(C)[C@@H](C(=O)CO)CC[C@@H]12 [Example 5α-THDOC, 3α,21-dihydroxy-5α-pregnan-20-one] , what TD50 is on record?
22.9 mg/kg

* * *

For each record, write down the corresponding pIC50.
molecular target: GABA receptor-chloride ionophore complex (GR complex); test: [35S]TBPS binding modulation assay; settings: read-out: IC50, inhibition of [35S]-TBPS binding, +5 μM GABA; in the presence of 5 μM GABA
On this scale, pIC50 is minus log10 of a concentration expressed in M (mol/L).

For the compound CC(=O)C1=CC[C@H]2[C@@H]3CC[C@H]4C[C@H](O)CC[C@]4(C)[C@H]3CC[C@]12C [3α-HYDROXY-5α-PREGN-16-EN-20-ONE] , what pIC50 is on record?
6.79

For the compound CC(=O)[C@H]1CC[C@H]2[C@@H]3CC[C@H]4C[C@](C)(O)CC[C@]4(C)[C@H]3CC[C@]12C [3α-HYDROXY-3β-METHYL-5α-PREGNAN-20-ONE, 3α-hydroxy-3β-methyl-5α-pregnan-20-one] , what pIC50 is on record?
7.22

For the compound CC(=O)[C@H]1CC[C@H]2[C@@H]3CC[C@H]4C[C@@H]5O[C@@H]5C[C@]4(C)[C@H]3CC[C@]12C [2,3-EPOXY-5α-PREGNAN-20-ONE, 2α,3α-Epoxy-5α-pregnan-20-one, reference compound] , what pIC50 is on record?
4.00

For the compound `C[C@]12CC[C@@H](O)C[C@@H]1CC[C@@H]1[C@@H]2CC[C@]2(C)[C@@H](C(=O)CCl)CC[C@@H]12` , what pIC50 is on record?
7.10

For the compound CC(=O)[C@H]1CC[C@H]2[C@@H]3CCC4=C[C@H](O)CC[C@]4(C)[C@H]3CC[C@]12C [3α-HYDROXY-4-PREGNEN-20-ONE] , what pIC50 is on record?
6.81

For the compound `C[C@]12CC[C@@H](O)C[C@@H]1CC[C@H]1[C@@H]3CC[C@H](C(=O)CO)[C@@]3(C)CC(=O)[C@@H]12` , what pIC50 is on record?
5.26

For the compound C/C=C1/CC[C@H]2[C@@H]3CC[C@H]4C[C@H](O)CC[C@]4(C)[C@H]3CC[C@]12C [3α-HYDROXY-5α-CIS-PREGN-17(20)-ENE, 3α-hydroxy-(5α)-cis-pregn-17(20)-ene] , what pIC50 is on record?
7.17

For the compound CC(C)(O)[C@H]1CC[C@H]2[C@@H]3CC[C@H]4C[C@H](O)CC[C@]4(C)[C@H]3CC[C@]12C [3α,20-dihydroxy-20-methyl-5α-pregnane] , what pIC50 is on record?
7.19

For the compound `C[C@H](O)[C@H]1CC[C@H]2[C@@H]3CC[C@H]4C[C@H](O)CC[C@]4(C)[C@H]3CC[C@]12C` , what pIC50 is on record?
7.09

* * *

molecular target: progesterone receptor (Bos taurus, UniProt F1N712); construct: from tissue; host or cells: bovine uterus cytosol; experiment: Inhibition of 3H-progesterone binding to bovine uteral progesterone receptors; details: read-out: % of inhibition of 3H-progesterone binding, A, competitor 10^-6 M; 0.15 nM 3H-progesterone
Sequence (F1N712 1-914): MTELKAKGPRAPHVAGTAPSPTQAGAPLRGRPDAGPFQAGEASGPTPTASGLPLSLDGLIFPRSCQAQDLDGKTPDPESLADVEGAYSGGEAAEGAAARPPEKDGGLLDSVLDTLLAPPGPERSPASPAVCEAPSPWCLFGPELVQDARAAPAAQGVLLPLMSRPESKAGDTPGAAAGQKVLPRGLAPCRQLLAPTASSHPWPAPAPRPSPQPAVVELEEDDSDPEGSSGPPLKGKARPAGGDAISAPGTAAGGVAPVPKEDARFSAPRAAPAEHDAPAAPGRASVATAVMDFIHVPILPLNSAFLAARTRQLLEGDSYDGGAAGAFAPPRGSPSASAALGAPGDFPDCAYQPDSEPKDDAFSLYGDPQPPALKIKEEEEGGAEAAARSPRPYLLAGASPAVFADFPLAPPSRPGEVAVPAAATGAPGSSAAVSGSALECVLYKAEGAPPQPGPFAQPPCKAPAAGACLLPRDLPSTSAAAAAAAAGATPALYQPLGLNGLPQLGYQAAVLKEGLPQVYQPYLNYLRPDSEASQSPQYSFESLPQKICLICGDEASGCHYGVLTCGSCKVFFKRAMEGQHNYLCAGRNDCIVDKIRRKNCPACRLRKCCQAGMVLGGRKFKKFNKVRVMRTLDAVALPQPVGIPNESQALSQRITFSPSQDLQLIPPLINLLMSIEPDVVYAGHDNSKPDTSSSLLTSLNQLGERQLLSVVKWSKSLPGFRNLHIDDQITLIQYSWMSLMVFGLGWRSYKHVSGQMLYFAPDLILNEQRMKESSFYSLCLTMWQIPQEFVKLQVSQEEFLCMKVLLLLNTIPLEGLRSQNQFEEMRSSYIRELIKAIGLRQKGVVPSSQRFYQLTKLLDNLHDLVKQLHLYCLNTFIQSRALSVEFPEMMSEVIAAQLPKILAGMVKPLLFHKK
Would you mind labelling by inhibition at 1 µM? At or over 6% is 1.0, under is 0.0.

Has C[C@]12CC[C@@H](O)C[C@@H]1CC[C@@H]1[C@@H]2CC[C@]2(C)[C@@H](C(=O)CO)CC[C@@H]12 [Example 5α-THDOC, 3α,21-dihydroxy-5α-pregnan-20-one] a recorded inhibition at 1 µM greater than or equal to 6%?
1.0

Has `CC(C)(O)[C@H]1CC[C@H]2[C@@H]3CC[C@H]4C[C@](C)(O)CC[C@]4(C)[C@H]3CC[C@]12C` a recorded inhibition at 1 µM greater than or equal to 6%?
1.0

Has `CC(=O)[C@H]1CC[C@H]2[C@@H]3CC[C@@H]4C[C@H](O)CC[C@]4(C)[C@H]3CC[C@]12C` a recorded inhibition at 1 µM greater than or equal to 6%?
1.0

Has CC(=O)[C@H]1CC[C@H]2[C@@H]3CC[C@H]4C[C@H](O)CC[C@]4(C)[C@H]3CC[C@]12C [Example 3α-OH-DHP, 3α-hydroxy-5α-pregnan-20-one] a recorded inhibition at 1 µM greater than or equal to 6%?
1.0

Has CC(=O)[C@H]1CC[C@H]2[C@@H]3CC[C@H]4C[C@](C)(O)CC[C@]4(C)[C@H]3CC[C@]12C [3α-HYDROXY-3β-METHYL-5α-PREGNAN-20-ONE, 3α-hydroxy-3β-methyl-5α-pregnan-20-one] a recorded inhibition at 1 µM greater than or equal to 6%?
0.0

FYI, the data here is from patent US5232917A.
